- TGT: UniProtKB Q15119
- TEST_METHOD_NOTES: Inhibitory action of PDHK activity in vitro (kinase reaction, residual PDH activity measured)
- Type: biochemical
- STATED_CONDITIONS: read-out: PDHK inhibitory activity (class symbol)

| MOLECULE | IC50 |
| --- | --- |
| CCc1cc(CO)c2c(c1)C(O)(C(F)(F)F)c1ccccc1-2 (stereo not shown) [compound 642] | > 1 µM |
| NC(=O)Cn1cc(-c2ccc3c(c2)C(O)(C(F)(F)F)c2cccc(CO)c2-3)cn1 (stereo not shown) [compound 609] | > 1 µM |
| N#CCc1cc(Cl)cc2c1-c1ccccc1C2(O)C(F)(F)F (stereo not shown) [compound 625] | > 1 µM |
| O=C(O)Cn1cc(-c2ccc3c(c2)C(O)(C(F)(F)F)c2cccc(CO)c2-3)cn1 (stereo not shown) [compound 608] | > 1 µM |

====

- TGT: human PDHK2 (hPDHK2) (Homo sapiens (Human), UniProt Q15119)
- TEST_METHOD_NOTES: Inhibitory action of PDHK activity in vitro (kinase reaction, residual PDH activity measured)
- Assay type: biochemical
- STATED_CONDITIONS: PDHK inhibitory activity, class symbol of IC50

| MOLECULE | TGT | IC50 |
| --- | --- | --- |
| OC1(C(F)(F)F)c2ccccc2-c2c(-c3ccncc3)cccc21 (centres unmarked) | human PDHK2 (hPDHK2) (Homo sapiens (Human), UniProt Q15119) | > 1000 nM |
| CC(C)Cn1cc(-c2cccc3c2-c2ccccc2C3(O)C(F)(F)F)cn1 (centres unmarked) | human PDHK2 (hPDHK2) (Homo sapiens (Human), UniProt Q15119) | < 100 nM |
| O=C(O)COC1CN(C(=O)c2ccc3c(c2)C(O)(C(F)(F)F)c2ccccc2-3)C1 (centres unmarked) | human PDHK2 (hPDHK2) (Homo sapiens (Human), UniProt Q15119) | > 1000 nM |
| Cn1cc(-c2cc(C(=O)N3CC3)cc3c2-c2ccccc2C3(O)C(F)(F)F)cn1 (centres unmarked) | human PDHK2 (hPDHK2) (Homo sapiens (Human), UniProt Q15119) | < 100 nM |
| Cn1cc(-c2cc(C(=O)N3CCC(O)C3)cc3c2-c2ccccc2C3(O)C(F)(F)F)cn1 (centres unmarked) | human PDHK2 (hPDHK2) (Homo sapiens (Human), UniProt Q15119) | < 100 nM |
| OCCCn1cc(-c2cccc3c2-c2ccccc2C3(O)C(F)(F)F)cn1 (centres unmarked) | human PDHK2 (hPDHK2) (Homo sapiens (Human), UniProt Q15119) | < 100 nM |
| CC(=O)c1cccc2c1-c1ccccc1C2(O)C(F)(F)F (centres unmarked) | human PDHK2 (hPDHK2) (Homo sapiens (Human), UniProt Q15119) | 100 to 1000 nM |
| OC[C@@H](O)Cn1cc(-c2cc(F)cc3c2-c2ccccc2C3(O)C(F)(F)F)cn1 (single isomer, unassigned) | human PDHK2 (hPDHK2) (Homo sapiens (Human), UniProt Q15119) | < 100 nM |

====

- TGT: UniProtKB Q15119
- TEST_METHOD_NOTES: Inhibitory action of PDHK activity in vitro (kinase reaction, residual PDH activity measured)
- Assay type: biochemical
- STATED_CONDITIONS: PDHK inhibitory activity, class symbol of IC50
pIC50: −log10 of the molar value.
METRIC: pIC50

| COMPOUND | METRIC | VALUE_MEASURED |
| --- | --- | --- |
| NC(=O)c1ccc(-c2ccc3c(c2)C(O)(C(F)(F)F)c2ccccc2-3)cc1 (stereo not shown) [compound 199] | pIC50 | 6.00 to 7.00 |
| O=C(c1ccc2c(c1)C(O)(C(F)(F)F)c1ccccc1-2)N1CC(C(=O)N2CCC(O)C2)C1 (stereo not shown) [compound 337] | pIC50 | 6.00 to 7.00 |
| Cn1cc(-c2cc(OCCCC(=O)O)cc3c2-c2ccccc2C3(O)C(F)(F)F)cn1 (single isomer, unassigned) [compound 504] | pIC50 | > 7.00 |
| OCCn1cc(-c2cc(F)cc3c2-c2ccccc2C3(O)C(F)(F)F)cn1 (stereo not shown) [compound 505] | pIC50 | > 7.00 |

====

- TGT: human PDHK2 (hPDHK2) (Homo sapiens (Human), UniProt Q15119)
- TEST_METHOD_NOTES: Inhibitory action of PDHK activity in vitro (kinase reaction, residual PDH activity measured)
- Format: biochemical
- STATED_CONDITIONS: read-out: PDHK inhibitory activity IC50
pIC50: −log10 of the molar value.
METRIC: pIC50

| COMPOUND | METRIC | QUALIFIER_SYMBOL | VALUE_MEASURED |
| --- | --- | --- | --- |
| OC1(C(F)(F)F)c2ccccc2-c2c(-c3ncco3)cccc21 (stereo not shown) | pIC50 | < | 5.00 |
| Cn1cc(-c2cccc3c2-c2ccccc2C3(O)C(F)(F)F)cn1 (stereo not shown) | pIC50 | = | 6.88 |
| OC1(C(F)(F)F)c2ccccc2-c2ccc(-c3ccccc3Cl)cc21 (stereo not shown) | pIC50 | = | 5.17 |
| O=C(c1cc(-c2cncnc2)c2c(c1)C(O)(C(F)(F)F)c1ccccc1-2)N1CCCC1 (stereo not shown) | pIC50 | = | 6.94 |
| O=C(O)CCCCOc1cc(Cl)c2c(c1)C(O)(C(F)(F)F)c1ccccc1-2 (stereo not shown) | pIC50 | = | 6.66 |
| NC(=O)CCCOc1cc(Cl)c2c(c1)C(O)(C(F)(F)F)c1ccccc1-2 (stereo not shown) | pIC50 | = | 6.81 |
| O=C(O)c1cccc2c1-c1ccccc1C2(O)C(F)(F)F (stereo not shown) | pIC50 | < | 4.00 |
| CC(=O)Nc1cccc2c1-c1ccccc1C2(O)C(F)(F)F (stereo not shown) | pIC50 | < | 4.00 |
| CC(C)=Cc1cc(-c2cnn(C(CO)CO)c2)c2c(c1)C(O)(C(F)(F)F)c1ccccc1-2 (single isomer, unassigned) | pIC50 | = | 7.82 |
| O=C(O)CCCCOc1ccc2c(c1)C(O)(C(F)(F)F)c1ccccc1-2 (stereo not shown) | pIC50 | = | 6.06 |
| NCc1cccc2c1-c1ccccc1C2(O)C(F)(F)F (stereo not shown) | pIC50 | < | 5.00 |
| CN(C)C(=O)CCOc1ccc2c(c1)C(O)(C(F)(F)F)c1ccccc1-2 (stereo not shown) | pIC50 | = | 6.12 |
| CN(c1ccccc1)c1ccc2c(c1)C(O)(C(F)(F)F)c1ccccc1-2 (stereo not shown) | pIC50 | = | 5.23 |
| Cc1cc(Cl)c2c(c1)C(O)(C(F)(F)F)c1ccccc1-2 (stereo not shown) | pIC50 | = | 6.38 |
| Cn1cc(-c2cc(C(=O)N3CC3)cc3c2-c2ccccc2C3(O)C(F)(F)F)cn1 (stereo not shown) | pIC50 | = | 7.49 |
| CC(=O)N(C)C[C@@H](O)COc1cc(-c2cnn(C)c2)c2c(c1)C(O)(C(F)(F)F)c1ccccc1-2 (stereo partly shown) | pIC50 | = | 7.41 |
| OCCCCCOc1ccc2c(c1)C(O)(C(F)(F)F)c1ccccc1-2 (stereo not shown) | pIC50 | = | 6.74 |
| CC(CO)(CO)n1cc(-c2cccc3c2-c2ccccc2C3(O)C(F)(F)F)cn1 (single isomer, unassigned) | pIC50 | = | 7.52 |
| CC(C)(C)CCc1cc(-c2cnn(C(CO)CO)c2)c2c(c1)C(O)(C(F)(F)F)c1ccccc1-2 (stereo not shown) [compound 666] | pIC50 | = | 7.57 |
| OCCc1ccc2c(c1)C(O)(C(F)(F)F)c1ccccc1-2 (stereo not shown) | pIC50 | = | 5.20 |
| O=C(c1cc(CO)c2c(c1)C(O)(C(F)(F)F)c1ccccc1-2)N1CCC1 (stereo not shown) | pIC50 | = | 7.28 |
| NC(=O)Cn1cc(-c2ccc3c(c2)C(O)(C(F)(F)F)c2cccc(CO)c2-3)cn1 (stereo not shown) | pIC50 | < | 6.00 |
| OC1(C(F)(F)F)c2ccccc2-c2cccc(Cl)c21 (stereo not shown) | pIC50 | = | 4.34 |
| COCc1ccc2c(c1)C(O)(C(F)(F)F)c1ccccc1-2 (stereo not shown) | pIC50 | = | 5.17 |
| O=C(O)Cn1cc(-c2cccc3c2-c2ccccc2C3(O)C(F)(F)F)cn1 (stereo not shown) | pIC50 | = | 6.27 |
| NC(=O)COc1cc(-c2cnn(CCO)c2)c2c(c1)C(O)(C(F)(F)F)c1ccccc1-2 (single isomer, unassigned) | pIC50 | = | 7.74 |
| OCCn1cc(-c2cccc3c2-c2ccccc2C3(O)C(F)(F)F)cn1 (stereo not shown) | pIC50 | = | 7.18 |
| OC1(C(F)(F)F)c2ccccc2-c2ccc(-c3cccc(F)c3)cc21 (stereo not shown) | pIC50 | = | 6.06 |
| CN(CCOc1ccc2c(c1)C(O)(C(F)(F)F)c1ccccc1-2)C(=O)OC(C)(C)C (stereo not shown) | pIC50 | = | 6.69 |
| CC(Oc1ccc2c(c1)C(O)(C(F)(F)F)c1ccccc1-2)C(=O)O (stereo not shown) | pIC50 | = | 5.91 |
| NCCCOc1ccc2c(c1)C(O)(C(F)(F)F)c1ccccc1-2 (stereo not shown) | pIC50 | = | 5.85 |
| CCOC(=O)c1ccccc1-c1ccc2c(c1)C(O)(C(F)(F)F)c1ccccc1-2 (stereo not shown) | pIC50 | < | 5.00 |
| CCCN(C)C(=O)c1ccc2c(c1)C(O)(C(F)(F)F)c1ccccc1-2 (stereo not shown) | pIC50 | = | 5.50 |
| O=C(c1cc(Cl)c2c(c1)C(O)(C(F)(F)F)c1ccccc1-2)N1CCC1 (stereo not shown) | pIC50 | = | 7.31 |
